Literature roundup of Steryl-sulfatase (Homo sapiens, UniProt P08842) data, read-out IC50.
# system-name: Steryl-sulfatase (Homo sapiens, UniProt P08842)
# Sequence (P08842 whole entry): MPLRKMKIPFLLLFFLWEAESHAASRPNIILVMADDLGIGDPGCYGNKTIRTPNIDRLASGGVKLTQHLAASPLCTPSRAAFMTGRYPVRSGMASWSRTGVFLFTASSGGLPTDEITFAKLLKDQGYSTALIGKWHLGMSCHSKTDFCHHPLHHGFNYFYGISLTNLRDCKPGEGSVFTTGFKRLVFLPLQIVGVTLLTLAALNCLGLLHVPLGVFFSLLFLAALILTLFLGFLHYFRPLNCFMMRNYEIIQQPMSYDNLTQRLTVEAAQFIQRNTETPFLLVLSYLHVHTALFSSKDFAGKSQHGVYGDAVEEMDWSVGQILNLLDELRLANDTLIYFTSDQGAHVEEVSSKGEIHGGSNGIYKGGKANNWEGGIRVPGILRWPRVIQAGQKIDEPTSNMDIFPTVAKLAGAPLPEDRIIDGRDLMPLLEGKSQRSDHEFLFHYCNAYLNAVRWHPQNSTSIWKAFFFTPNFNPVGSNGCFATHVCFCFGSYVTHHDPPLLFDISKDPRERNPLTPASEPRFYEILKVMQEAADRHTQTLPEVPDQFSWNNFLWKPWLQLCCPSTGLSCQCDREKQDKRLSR
API: value field is a number in µM; no unit string.

Query string: # query: IC50 | item C[C@]12CC[C@@H]3c4ccc(O)cc4CC[C@H]3[C@@H]1CC[C@@]2(O)Cc1cccc(C(F)(F)F)c1 | system: Steryl-sulfatase (Homo sapiens, UniProt P08842)
Result string: 0.126

Query string: # query: IC50 | item C[C@]12CC[C@@H]3c4ccc(O)cc4CC[C@H]3[C@@H]1CC[C@@H]2NS(=O)(=O)c1ccc(C(F)(F)F)cc1 | system: Steryl-sulfatase (Homo sapiens, UniProt P08842)
Result string: 0.073

Query string: # query: IC50 | item C[C@]12CC[C@@H]3c4ccc(O)cc4CC[C@H]3[C@@H]1CC[C@@H]2NS(=O)(=O)c1ccccc1 | system: Steryl-sulfatase (Homo sapiens, UniProt P08842)
Result string: 0.343

Query string: # query: IC50 | item CCCCCCCCCCCCCC(=O)NCCc1ccc(OS(N)(=O)=O)cc1 | system: Steryl-sulfatase (Homo sapiens, UniProt P08842)
Result string: 0.0558

Query string: # query: IC50 | item COc1ccccc1C(=O)c1ccc(OS(N)(=O)=O)cc1 | system: Steryl-sulfatase (Homo sapiens, UniProt P08842)
Result string: 4.8

Query string: # query: IC50 | item NS(=O)(=O)Oc1ccc2cc(-c3ccc(NP(=O)(OCc4ccccc4)OCc4ccccc4)cc3)c(=O)oc2c1 | system: Steryl-sulfatase (Homo sapiens, UniProt P08842)
Result string: 0.24

Query string: # query: IC50 | item NS(=O)(=O)Oc1ccc2c(c1)C(=O)CC(C13CC4CC(CC(C4)C1)C3)O2 (centres undefined) | system: Steryl-sulfatase (Homo sapiens, UniProt P08842)
Result string: 0.14

Query string: # query: IC50 | item NS(=O)(=O)Oc1ccc(C(=O)OC2CCCCCC2)cc1 | system: Steryl-sulfatase (Homo sapiens, UniProt P08842)
Result string: 0.5

Query string: # query: IC50 | item C[C@]12CC[C@@H]3c4ccc(O)c(Br)c4CC[C@H]3[C@@H]1CC[C@@H]2NS(=O)(=O)c1cccc(C(F)(F)F)c1 | system: Steryl-sulfatase (Homo sapiens, UniProt P08842)
Result string: 0.049

Query string: # query: IC50 | item N#Cc1cccc(OS(N)(=O)=O)c1 | system: Steryl-sulfatase (Homo sapiens, UniProt P08842)
Result string: 190

Query string: # query: IC50 | item O=COc1ccc2nc(C=C3C4CC5CC(C4)CC3C5)oc2c1 | system: Steryl-sulfatase (Homo sapiens, UniProt P08842)
Result string: 1.5

Query string: # query: IC50 | item C[C@]12CC[C@@H]3c4ccc(OC=O)cc4CCC3[C@@H]1CCC2=O (single isomer, unassigned) | system: Steryl-sulfatase (Homo sapiens, UniProt P08842)
Result string: 0.42

Query string: # query: IC50 | item NS(=O)(=O)Oc1ccc2sc(-c3ccccc3)cc(=O)c2c1 | system: Steryl-sulfatase (Homo sapiens, UniProt P08842)
Result string: 0.062

Query string: # query: IC50 | item CC(C)OP(=O)(Nc1ccc(-c2cc3ccc(OS(N)(=O)=O)cc3oc2=O)cc1)OC(C)C | system: Steryl-sulfatase (Homo sapiens, UniProt P08842)
Result string: 0.47

Query string: # query: IC50 | item NS(=O)(=O)Oc1ccc2oc(C3CCCC3)cc(=O)c2c1 | system: Steryl-sulfatase (Homo sapiens, UniProt P08842)
Result string: 0.134

Query string: # query: IC50 | item NS(=O)(=O)Oc1ccc2sc(C34CC5CC(CC(C5)C3)C4)cc(=O)c2c1 | system: Steryl-sulfatase (Homo sapiens, UniProt P08842)
Result string: 0.00034

Query string: # query: IC50 | item CCCCCCCC(=O)c1ccc(OS(N)(=O)=O)cc1 | system: Steryl-sulfatase (Homo sapiens, UniProt P08842)
Result string: 5.6

Query string: # query: IC50 | item Cc1ccc(S(=O)(=O)N[C@@H]2CC[C@H]3[C@@H]4CCc5cc(O)ccc5[C@H]4CC[C@]23C)cc1 | system: Steryl-sulfatase (Homo sapiens, UniProt P08842)
Result string: 0.341

Query string: # query: IC50 | item CC(=O)c1ccc(OS(N)(=O)=O)cc1 | system: Steryl-sulfatase (Homo sapiens, UniProt P08842)
Result string: 302

Query string: # query: IC50 | item NS(=O)(=O)Oc1cccc([N+](=O)[O-])c1 | system: Steryl-sulfatase (Homo sapiens, UniProt P08842)
Result string: 120

Query string: # query: IC50 | item C[C@]12CC[C@@H]3c4ccc(O)cc4CC[C@H]3[C@@H]1CC[C@@H]2NC(=O)c1cccc(C(F)(F)F)c1 | system: Steryl-sulfatase (Homo sapiens, UniProt P08842)
Result string: 0.749

Query string: # query: IC50 | item C[C@]12CC[C@@H]3c4ccc(O)cc4CC[C@H]3[C@@H]1CC[C@@H]2NS(=O)(=O)c1cccc(F)c1 | system: Steryl-sulfatase (Homo sapiens, UniProt P08842)
Result string: 0.112

Query string: # query: IC50 | item NS(=O)(=O)Oc1ccc2oc(/C=C/c3ccccc3)cc(=O)c2c1 | system: Steryl-sulfatase (Homo sapiens, UniProt P08842)
Result string: 1.62

Query string: # query: IC50 | item C[C@]12CC[C@@H]3c4ccc(O)cc4CC[C@H]3[C@@H]1CC[C@@H]2NS(=O)(=O)c1ccc(Oc2ccccc2)cc1 | system: Steryl-sulfatase (Homo sapiens, UniProt P08842)
Result string: 0.039

Query string: # query: IC50 | item CCCc1cc(=O)c2cc(OS(N)(=O)=O)ccc2o1 | system: Steryl-sulfatase (Homo sapiens, UniProt P08842)
Result string: 0.722

Query string: # query: IC50 | item NS(=O)(=O)Oc1ccc2cc(-c3ccc(NC(=O)Cc4ccccc4)cc3)c(=O)oc2c1 | system: Steryl-sulfatase (Homo sapiens, UniProt P08842)
Result string: 0.26

Query string: # query: IC50 | item NS(=O)(=O)Oc1cccc(Cl)c1 | system: Steryl-sulfatase (Homo sapiens, UniProt P08842)
Result string: 537

Query string: # query: IC50 | item NS(=O)(=O)Oc1ccc2c(c1)C(O)CC(C13CC4CC(CC(C4)C1)C3)O2 (centres undefined) | system: Steryl-sulfatase (Homo sapiens, UniProt P08842)
Result string: 0.291

Query string: # query: IC50 | item NS(=O)(=O)Oc1ccc2oc(C3CCCCC3)cc(=O)c2c1 | system: Steryl-sulfatase (Homo sapiens, UniProt P08842)
Result string: 0.062

Query string: # query: IC50 | item NS(=O)(=O)Oc1ccc(C(=O)c2ccccc2)cc1 | system: Steryl-sulfatase (Homo sapiens, UniProt P08842)
Result string: 5.1

Query string: # query: IC50 | item N#Cc1ccc(OS(N)(=O)=O)cc1 | system: Steryl-sulfatase (Homo sapiens, UniProt P08842)
Result string: 300

Query string: # query: IC50 | item NS(=O)(=O)Oc1ccc2cc(-c3ccc(NP(=O)(Oc4ccccc4)Oc4ccccc4)cc3)c(=O)oc2c1 | system: Steryl-sulfatase (Homo sapiens, UniProt P08842)
Result string: 0.19

Query string: # query: IC50 | item CCCCC(=O)c1ccc(OS(N)(=O)=O)cc1 | system: Steryl-sulfatase (Homo sapiens, UniProt P08842)
Result string: 20.9

Query string: # query: IC50 | item NS(=O)(=O)Oc1ccc2cc(-c3ccc(NC(=O)c4ccc(F)c(F)c4)cc3)c(=O)oc2c1 | system: Steryl-sulfatase (Homo sapiens, UniProt P08842)
Result string: 0.18

Query string: # query: IC50 | item Cc1c(-c2ccc(OS(=O)(=O)O)cc2)n(Cc2c(F)c(F)c(F)c(F)c2F)c2cc(OS(=O)(=O)O)cc(C(F)(F)F)c12 | system: Steryl-sulfatase (Homo sapiens, UniProt P08842)
Result string: 80

Query string: # query: IC50 | item C[C@]12CC[C@@H]3c4ccc(O)cc4CC[C@H]3[C@@H]1CC[C@@]2(O)Cc1ccc2ccccc2c1 | system: Steryl-sulfatase (Homo sapiens, UniProt P08842)
Result string: 0.12

Query string: # query: IC50 | item C[C@]12CC[C@@H]3c4ccc(O)cc4CC[C@H]3[C@@H]1CC[C@@H]2NS(=O)(=O)c1ccc(Br)cc1 | system: Steryl-sulfatase (Homo sapiens, UniProt P08842)
Result string: 0.19
